# Test system: TK-10 renal
# procedureSummary: NCI tumour cell line growth inhibition, 48 h

| molecule | TGI |
| --- | --- |
| CC1(C)O[C@H]([C@H](O)c2nnc3ccc(Cl)nn23)[C@@H]([C@H]2COC(C)(C)O2)O1 | > 100 µM |
| C=CC(CBr)CCC(Br)C(C)(C)Br (centres undefined) | > 10 µM |
| NC(=O)c1ccc(NS(=O)(=O)c2ccc(N)cc2)nc1 | > 100 µM |
| NCCCCCCCCn1c2c(c3ccccc3c1=O)C(=O)c1ccccc1-2 | 3.88 µM |
| CCc1n[nH]c(=O)n1N1C(=O)CCC1=O | > 100 µM |
| CCN1C(=O)N(CC)C2C1NN=c1s/c(=C\c3ccccc3F)c(=O)n12 (centres undefined) | > 63.6 µM |
| N#CC(/C(=N\NC(=O)c1ccncc1)C(=O)Nc1ccc([N+](=O)[O-])cc1[N+](=O)[O-])c1nc(-c2ccc(Br)cc2)cs1 (centres undefined) | > 100 µM |
| CC1=C(C(=O)Nc2ccccc2)C(c2ccc([N+](=O)[O-])cc2)C(C(=O)Nc2ccccc2)=C(C)N1 | > 100 µM |
| CC1=C(C(=O)Nc2ccccc2C)C(c2ccc(C3C(C(=O)Nc4ccccc4C)=C(C)NC(C)=C3C(=O)Nc3ccccc3C)cc2)C(C(=O)Nc2ccccc2C)=C(C)N1 | 24.2 µM |
| Nc1nc(Cl)cc(NCCCNc2cc(Cl)nc(N)n2)n1 | > 100 µM |
| COC(=O)NC1(NC(=O)OC)NC(=O)c2cc(OC)c(OC)cc2N1 | > 100 µM |
| O=C(O)C1=C(C(=O)Nc2ccccc2)C2C=CC1C2 (centres undefined) | > 100 µM |
| Cc1cc(C(=O)Nc2nc3cccc(Cl)c3n2[C@@H]2CCCCN(C(=O)/C=C/CN(C)C)C2)ccn1 | 16.4 µM |
| CCOC(=O)CC(=O)C(=O)NNC1=NCCN1 | > 100 µM |
| CC(C)CCSC1=CC(=O)c2ccccc2C1=O | 24.8 µM |
| O=c1c(-c2ccccc2)c2oc(c1-c1ccccc1)CS(=O)(=O)CCC2 | > 100 µM |
| O=C(Nc1cc2c(=O)[nH]c3ccccc3c2oc1=O)c1cnccn1 | > 100 µM |
| CCCCC(C(=O)N/N=C/c1ccc([N+](=O)[O-])o1)C(=O)N/N=C/c1ccc([N+](=O)[O-])o1 | 7.73 µM |
| O=C1Oc2ccccc2C(=O)/C1=C/N1C(=O)/C(=C/c2ccc3c(c2)OCO3)SC1=S | 22.7 µM |

====

# Test system: MDA-MB-231 breast
# procedureSummary: NCI tumour cell line growth inhibition, 48 h

| compound | TGI |
| --- | --- |
| Nc1ccccc1SC(CC(=O)c1ccccc1)c1ccc([N+](=O)[O-])cc1 (centres undefined) | 24.1 µM |
| O=C(CSc1nc2ccccc2nc1-c1ccccc1)Nc1ccc(Cl)cc1 | > 100 µM |
| O=c1[nH]c(=O)n(C2OC(CO)C(O)C2O)c2ncc(-c3ccc(-c4ccccc4)cc3)nc12 (centres undefined) | > 20 µM |
| COc1ccccc1/C=C/C(=O)c1c(O)cc2occc2c1OC | > 100 µM |
| COC(=O)[C@H]1[C@@H](O)[C@@]2(O)c3c(OC)cc(O[C@@H]4O[C@@H]([C@H](O)CO)CO[C@H]4OC)cc3O[C@@]2(c2ccc(OC)cc2)[C@@H]1c1ccccc1 | 0.0237 µM |
| COc1ccc(-c2nsc3c2NC(=O)CC3c2ccc(F)cc2)cc1 (centres undefined) | > 100 µM |
| COc1ccc(CC2c3cc(OC)c(OC)c(OC)c3CC[N+]2(C)C)cc1Oc1ccc(CC2c3cc4c(c(OC)c3CC[N+]2(C)C)OCO4)cc1 (centres undefined) | > 100 µM |
| [O-]c1c[n+](CCCC[n+]2cc([O-])on2)no1 | > 100 µM |
| N=c1oc2c(Br)cc(Br)cc2cc1C(=O)Nc1ccccn1 | > 100 µM |
| Cc1ccc(-c2cc(-c3ccc(Cl)cc3)nc(/N=C3\C(=O)N(CN4CCOCC4)c4ccccc43)n2)cc1 | > 100 µM |
| C1=Nc2ccc(cc2)N=Cc2ccccc2OCc2cccc(n2)COc2ccccc21 | > 100 µM |
| CC(C)CC1C(=O)N2CCC[C@H]2C2(O)O[C@](NC(=O)C3C=C4c5cccc6[nH]c(Br)c(c56)C[C@H]4N(C)C3)(C(C)C)C(=O)N12 (some centres undefined) | > 100 µM |
| Cc1ncc(C(=O)Nc2ccc(CN3CCN(C)CC3)c(C(F)(F)F)c2)cc1C#Cc1cnc(N)c2cnccc12 | 0.165 µM |
| CC1=[N+]([O-])C(C)(C)N(N=O)C1(C)C | > 10 µM |
| CCN(CC)CCCC(C)Nc1cc(-c2ccc(C(F)(F)F)cc2)c(C#N)c2nc3ccccc3n12 (centres undefined) | 3.42 µM |
| COc1cc2c(F)nccc2cc1C(=O)N[C@@H](c1ccc(F)c(Cl)c1)[C@@H]1C[C@@H](O)CN1 | 25 µM |
| COc1cc(-c2nc(NC(C)=O)sc2-c2ccnc(NCCNS(=O)(=O)c3ccccc3)n2)ccc1Cl | > 100 µM |
| C=C(C)CNC(=S)N(N)c1ccc(OC)cc1 | > 100 µM |
| COc1c2ccoc2cc2oc(=O)ccc12 | > 100 µM |

====

In this section we review reported TGI values for a set of molecules.
# Test system: TK-10 renal
# procedureSummary: NCI tumour cell line growth inhibition, 48 h
measuredAttribute: TGI

| molecule | observedMeasurement |
| --- | --- |
| CC(C)(C)N1C(=O)c2ccccc2C1(O)C(F)(F)F (stereo not given) | > 100 µM |
| COC(=O)C(Cc1cnc[nH]1)NC(=O)CNC(=O)CCCn1c(=O)c2c3ccccc3n(C)c2n2nnc(-c3ccccc3)c12 (stereo not given) | > 100 µM |
| COc1cccc(C(=O)Nc2c3ccccc3nc3ccccc23)c1OC | > 100 µM |
| C[C@H]1C(=O)O[C@@H]1[C@H]1COC(C)(C)O1 | > 100 µM |
| [O-]c1c[n+](CCCC[n+]2cc([O-])on2)no1 | > 100 µM |

====

Entries and their TGI values follow.
# Test system: SN12C renal
# procedureSummary: NCI tumour cell line growth inhibition, 48 h
measuredAttribute: TGI

| molecule | observedMeasurement |
| --- | --- |
| CCOC(=O)C(Cc1c[nH]c2ccc([N+](=O)[O-])cc12)(NC(C)=O)C(=O)OCC | > 1000 µM |
| COc1ccc(C2=Nn3c(nc4sc(C)c(C)c4c3=O)SC2)cc1 | > 100 µM |
| Cn1cc(-c2csc(-c3cn(C)c4ccc(Br)cc34)n2)c2cnccc21 | 2.92 µM |
| O=C(O)C1=C(C(=O)Nc2ccccc2)C2C=CC1C2 (configuration not stated) | > 100 µM |
| CC(C)C1C(=O)NC(CO)Cc2c[nH]c3c(C(c4c[nH]c5ccccc45)C(O)CO)ccc(c23)N1C (configuration not stated) | > 100 µM |
| O=C(Nc1ccc(Cl)cc1)NS(=O)(=O)c1coc2ccccc2c1=O | > 10 µM |
| COCc1c(CO)cnc(C)c1OC1OC(CO)C(O)C(O)C1O (configuration not stated) | > 100 µM |
| COc1cc2c(F)nccc2cc1C(=O)N[C@@H](c1ccc(F)c(Cl)c1)[C@@H]1C[C@@H](O)CN1 | 22.2 µM |
| COc1ccc(CC2c3cc(OC)c(OC)c(OC)c3CC[N+]2(C)C)cc1Oc1ccc(CC2c3cc4c(c(OC)c3CC[N+]2(C)C)OCO4)cc1 (configuration not stated) | > 100 µM |
| O=C(N/N=C/c1ccccc1O)C(O)(c1ccccc1)c1ccccc1 | > 100 µM |
| Cn1c2c(c3ccccc31)CCN1OCC=C[C@@H](C(=O)O)[C@@H]21 | > 100 µM |
| CNC1C(O)C(OC2C(N)CC(N)C(OC3OC(CN)=CCC3N)C2O)OCC1(C)O (configuration not stated) | > 100 µM |
| Cc1c(C#N)c(N)[nH]c(=S)c1C#N | > 100 µM |
| Cc1nnc2sc(Cl)nn12 | > 100 µM |
| CC1C(=NO)C(C)C(c2ccccc2)N(N=O)C1c1ccccc1 (configuration not stated) | 28.8 µM |
| C=C[C@]1(O)CCC[C@]2(C)C(=O)CCC12C (some centres not stated) | > 100 µM |
| O=C(NO)c1ccc(OCc2cccc(Cl)c2)cc1 | 55.9 µM |
| Cc1nc2ccccn2c1NC(=O)NNC(=S)Nc1ccc(Br)cc1 | > 100 µM |
| O=C1Oc2ccccc2C(=O)/C1=C/N1C(=O)/C(=C/c2ccc3c(c2)OCO3)SC1=S | 51.6 µM |
| COC(=O)NC1(NC(=O)OC)NC(=O)c2cc(OC)c(OC)cc2N1 | > 100 µM |
| CCOC(=O)[C@@H]1OC(c2ccccc2)O[C@H]1C(=O)OCC | > 100 µM |
| C[C@H]1C(=O)O[C@@H]1[C@H]1COC(C)(C)O1 | > 100 µM |
| CC(=O)[O-].CC(=O)[O-].O=C(N/N=C/c1cc(Cl)cc(Cl)c1O)c1ccncc1.[Ni+2] | > 100 µM |
| CCc1n[nH]c(=O)n1N1C(=O)CCC1=O | > 100 µM |
| COc1cccc(C(=O)Nc2c3ccccc3nc3ccccc23)c1OC | > 100 µM |
| COC(=O)C(Cc1ccccc1)NC(=O)C(CCC(=O)OCc1ccccc1)NC(=O)OC(C)(C)C (configuration not stated) | > 100 µM |
| COc1cc2c3c(c4ccc(OC)c(OC)c4c2cc1OC)CN1CCC[C@@H]1C3 | 18 µM |
| CCOC(=O)CC(=O)C(=O)NNC1=NCCN1 | > 100 µM |
| COc1c2ccoc2cc2oc(=O)ccc12 | > 100 µM |
| Oc1cccc(-c2ccc3c4c2O[C@H]2c5[nH]c6ccccc6c5C[C@@]5(O)[C@@H](C3)N(CC3CC3)CC[C@]425)c1 | 3.04 µM |
| CN(C)c1ncnc2c1Cc1ccccc1C(=O)N2C | > 100 µM |
| CCCCC(C(=O)N/N=C/c1ccc([N+](=O)[O-])o1)C(=O)N/N=C/c1ccc([N+](=O)[O-])o1 | 12.3 µM |
| CN(C)CC1CCCC(CN2CCCCC2)C1=O (configuration not stated) | 16.8 µM |
| CN(C)CCCNC(=O)c1cc(NC(=O)c2cc(NS(=O)(=O)c3ccc4c(c3)C(=O)c3ccccc3C4=O)cn2C)cn1C | > 100 µM |
| CC(/C=C/C(=O)c1sc(-n2nc(-c3ccccc3)cc2-c2ccccc2)nc1C)=C\c1ccccc1 | > 100 µM |
| Nc1nc(Cl)cc(NCCCCCNc2cc(Cl)nc(N)n2)n1 | > 100 µM |
| O=C1c2sc(-c3ccc(F)cc3)cc2-n2cccc21 | 49.6 µM |
| Nc1ccc(Oc2ccc(C3(c4ccc(Oc5ccc(N)cc5)cc4)C4CC5C6CC7CC5C3C(C7)C6C4)cc2)cc1 | 98.5 µM |
| CCCCCCCCCCCCNC(=O)[C@H]1CSC(c2cc3ccccc3s2)N1 (some centres not stated) | 7.24 µM |
| Nc1nc(Cl)cc(NCCCNc2cc(Cl)nc(N)n2)n1 | > 100 µM |
| c1ccc(N=C(N2CCOCC2)N(CCN2CCOCC2)c2ccccc2)cc1 | > 100 µM |
| Cc1cccc(O)c1-c1nnc(CCCCCCCCc2nnc(-c3c(C)cccc3O)n2N)n1N | > 100 µM |
